- Tested on: 8305C (Thyroid Gland Carcinoma)
- Assay Summary: Bliss excess, mean over the matrix (fraction); higher = more synergy
Parameter Measured: Bliss excess
// keep it numeric: no unit symbol after the value

Compound | Bliss excess
NC1(C(=O)N[C@@H](CCO)c2ccc(Cl)cc2)CCN(c2ncnc3[nH]ccc23)CC1 [Capivasertib] + CC(C)n1c(=O)n(C)c2cnc3cc(F)c(-c4ccc(OCCCN5CCCCC5)nc4)cc3c21 [AZD1390] (first compound max 10 µM, 7x7, partner max 0.3 µM) | -0.0773
Cc1c2c(nn1C)CSCc1cc(n(C)n1)CSc1cc(c3ccccc3c1)OCCCc1c(C(=O)O)n(C)c3c-2c(Cl)ccc13 [AZD5991] + C[C@@H]1COCCN1C2=NC(=NC(=C2)C3(CC3)[S@](=N)(=O)C)C4=C5C=CNC5=NC=C4 [AZD6738] (first compound max 1 µM, 7x7, partner max 10 µM) | -0.0605
CCN(CCO)CCCOc1ccc2c(Nc3cc(CC(=O)Nc4cccc(F)c4)[nH]n3)ncnc2c1 [AZD2811] + C[C@@H]1COCCN1C2=NC(=NC(=C2)C3(CC3)[S@](=N)(=O)C)C4=C5C=CNC5=NC=C4 [AZD6738] (first compound max 1 µM, 7x7, partner max 10 µM) | -0.0872

Pending compound:
What measured Bliss excess is associated with CC1(C)CCC(CN2CCN(c3ccc(C(=O)NS(=O)(=O)c4ccc(NCC5CCOCC5)c([N+](=O)[O-])c4)c(Oc4cnc5[nH]ccc5c4)c3)CC2)=C(c2ccc(Cl)cc2)C1 [Venetoclax] + C[C@@H]1COCCN1C2=NC(=NC(=C2)C3(CC3)[S@](=N)(=O)C)C4=C5C=CNC5=NC=C4 [AZD6738] (first compound max 1 µM, 7x7, partner max 10 µM) on 8305C (Thyroid Gland Carcinoma)?
-0.0471

====

- Test system: K5 (Thyroid Gland Carcinoma)
- Assay Summary: Bliss excess, mean over the matrix (fraction); higher = more synergy
Consider the following compounds and their measured Bliss excess readings.
Please give only the number in your answer, with no unit.

Below are worked cases with known answers.
Compound | Target Under Test | Measured Number
Cc1cc2ncnn2cc1Nc1ncc2c(n1)n(C1CCOCC1)c(=O)n2C [AZD7648] + O=C(c1cc(Cc2n[nH]c(=O)c3ccccc23)ccc1F)N1CCN(C(=O)C2CC2)CC1 [Olaparib] (first compound max 10 µM, 7x7, partner max 10 µM) | K5 (Thyroid Gland Carcinoma) | -0.0159
Cc1c2c(nn1C)CSCc1cc(n(C)n1)CSc1cc(c3ccccc3c1)OCCCc1c(C(=O)O)n(C)c3c-2c(Cl)ccc13 [AZD5991] + C[C@@H](Nc1cc(F)cc(F)c1)c1cc(C(=O)N(C)C)cc2c(=O)cc(N3CCOCC3)oc12 [AZD8186] (first compound max 1 µM, 7x7, partner max 3 µM) | K5 (Thyroid Gland Carcinoma) | -0.0231
Cn1cnc2c(F)c(Nc3ccc(Br)cc3Cl)c(C(=O)NOCCO)cc21 [Selumetinib] + CC(C)n1c(=O)n(C)c2cnc3cc(F)c(-c4ccc(OCCCN5CCCCC5)nc4)cc3c21 [AZD1390] (first compound max 10 µM, 7x7, partner max 0.3 µM) | K5 (Thyroid Gland Carcinoma) | -0.021

Now for a further compound.
Observed Bliss excess on K5 (Thyroid Gland Carcinoma) for CCN(CCO)CCCOc1ccc2c(Nc3cc(CC(=O)Nc4cccc(F)c4)[nH]n3)ncnc2c1 [AZD2811] + C[C@@H]1COCCN1C2=NC(=NC(=C2)C3(CC3)[S@](=N)(=O)C)C4=C5C=CNC5=NC=C4 [AZD6738] (first compound max 1 µM, 7x7, partner max 10 µM) , please.
-0.086

====

- Test system: RT-112 (Bladder Carcinoma)
- Assay Summary: combination Emax (second highest fraction inhibited in the dose matrix, 72 h); higher = more inhibition; extreme values may be limits of the assay
Listing: combination Emax of selected molecules

Molecule | Parameter Measured | Result
COc1cc2c(cc1OCCCCCOc1cc3c(cc1OC)C(=O)N1C=C(C)C[C@H]1C=N3)N=C[C@@H]1CC(C)=CN1C2=O [SG3199] + O=C(c1cc(Cc2n[nH]c(=O)c3ccccc23)ccc1F)N1CCN(C(=O)C2CC2)CC1 [Olaparib] (first compound max 0.001 µM, 7x7, partner max 10 µM) | combination Emax | 0.1
NC1(C(=O)N[C@@H](CCO)c2ccc(Cl)cc2)CCN(c2ncnc3[nH]ccc23)CC1 [Capivasertib] + Cn1cnc2c(F)c(Nc3ccc(Br)cc3Cl)c(C(=O)NOCCO)cc21 [Selumetinib] (first compound max 10 µM, 7x7, partner max 10 µM) | combination Emax | 0.475
CCN(CCO)CCCOc1ccc2c(Nc3cc(CC(=O)Nc4cccc(F)c4)[nH]n3)ncnc2c1 [AZD2811] + C[C@@H]1COCCN1C2=NC(=NC(=C2)C3(CC3)[S@](=N)(=O)C)C4=C5C=CNC5=NC=C4 [AZD6738] (first compound max 1 µM, 7x7, partner max 10 µM) | combination Emax | 0.824
C[C@@H](c1ccc2nccn2c1)n1nnc2ncc(-c3cnn(C)c3)nc21 [Savolitinib] + Cc1c2c(nn1C)CSCc1cc(n(C)n1)CSc1cc(c3ccccc3c1)OCCCc1c(C(=O)O)n(C)c3c-2c(Cl)ccc13 [AZD5991] (first compound max 1 µM, 7x7, partner max 1 µM) | combination Emax | 0.602

Endpoint output: combination Emax of NC1(C(=O)N[C@@H](CCO)c2ccc(Cl)cc2)CCN(c2ncnc3[nH]ccc23)CC1 [Capivasertib] + CC(=O)c1c(C)c2cnc(Nc3ccc(N4CCNCC4)cn3)nc2n(C2CCCC2)c1=O [Palbociclib] (first compound max 10 µM, 7x7, partner max 10 µM) . Value?
0.415

What does the data say about its combination Emax? Entry: Cc1c2c(nn1C)CSCc1cc(n(C)n1)CSc1cc(c3ccccc3c1)OCCCc1c(C(=O)O)n(C)c3c-2c(Cl)ccc13 [AZD5991] + Cn1cnc2c(F)c(Nc3ccc(Br)cc3Cl)c(C(=O)NOCCO)cc21 [Selumetinib] (first compound max 1 µM, 7x7, partner max 3 µM)
1

What combination Emax value was documented for this molecule, NC1(C(=O)N[C@@H](CCO)c2ccc(Cl)cc2)CCN(c2ncnc3[nH]ccc23)CC1 [Capivasertib] + COc1nnc2ccc(N3CCC(c4ccc(OCCN5CCN(C)C(=O)[C@H]5C)cc4)CC3)nn12 [AZD5153] (first compound max 10 µM, 7x7, partner max 1 µM) ?
0.383

Name the reported combination Emax value associated with the molecule NC1(C(=O)N[C@@H](CCO)c2ccc(Cl)cc2)CCN(c2ncnc3[nH]ccc23)CC1 [Capivasertib] + C[C@@H]1COCCN1C2=NC(=NC(=C2)C3(CC3)[S@](=N)(=O)C)C4=C5C=CNC5=NC=C4 [AZD6738] (first compound max 10 µM, 7x7, partner max 10 µM)
0.62

Given the molecule C=CCn1c(=O)c2cnc(Nc3ccc(N4CCN(C)CC4)cc3)nc2n1-c1cccc(C(C)(C)O)n1 [AZD1775] + O=C(c1cc(Cc2n[nH]c(=O)c3ccccc23)ccc1F)N1CCN(C(=O)C2CC2)CC1 [Olaparib] (first compound max 1 µM, partner max 10 µM) , what is its reported combination Emax?
0.705

Entry under review: COc1nnc2ccc(N3CCC(c4ccc(OCCN5CCN(C)C(=O)[C@H]5C)cc4)CC3)nn12 [AZD5153] + CCN(CCO)CCCOc1ccc2c(Nc3cc(CC(=O)Nc4cccc(F)c4)[nH]n3)ncnc2c1 [AZD2811] (first compound max 1 µM, 7x7, partner max 1 µM) . Reported combination Emax?
0.357

Give its combination Emax value. Item: COc1cccc(OCCCN)c1-c1cc(Nc2cnc(C#N)cn2)n[nH]1 [Prexasertib] + O=C(c1cc(Cc2n[nH]c(=O)c3ccccc23)ccc1F)N1CCN(C(=O)C2CC2)CC1 [Olaparib] (first compound max 1 µM, 7x7, partner max 10 µM)
0.797

Param item = CCc1c2c(nc3ccc(O)cc13)-c1cc3c(c(=O)n1C2)COC(=O)[C@]3(O)CC [SN-38] + CN(C)CCCOc1ccc(-c2ccc3ncc4c(c3c2)n(C2CCOCC2)c(=O)n4C)cn1 [AZD0156] (first compound max 0.3 µM, 7x7, partner max 1 µM) ; retrieve measured combination Emax.
0.797

// combination Emax lookup, key: Cn1cnc2c(F)c(Nc3ccc(Br)cc3Cl)c(C(=O)NOCCO)cc21 [Selumetinib] + CCN(CCO)CCCOc1ccc2c(Nc3cc(CC(=O)Nc4cccc(F)c4)[nH]n3)ncnc2c1 [AZD2811] (first compound max 10 µM, 7x7, partner max 1 µM)
0.456

Quick one: combination Emax for COc1cccc(OCCCN)c1-c1cc(Nc2cnc(C#N)cn2)n[nH]1 [Prexasertib] + Cc1cc2ncnn2cc1Nc1ncc2c(n1)n(C1CCOCC1)c(=O)n2C [AZD7648] (first compound max 1 µM, 7x7, partner max 10 µM) ?
0.95

====

- System: LoVo (Colorectal Carcinoma)
- Assay Summary: Bliss excess, mean over the matrix (fraction); higher = more synergy
Parameter Measured: Bliss excess
Lab note: jot down the number only; don't add units.

// solved cases for Bliss excess follow
Compound | Bliss excess
C=CCn1c(=O)c2cnc(Nc3ccc(N4CCN(C)CC4)cc3)nc2n1-c1cccc(C(C)(C)O)n1 [AZD1775] + CCc1c2c(nc3ccc(O)cc13)-c1cc3c(c(=O)n1C2)COC(=O)[C@]3(O)CC [SN-38] (first compound max 1 µM, partner max 0.3 µM) | -0.0388
Cc1nc(Nc2ncc(C(=O)Nc3c(C)cccc3Cl)s2)cc(N2CCN(CCO)CC2)n1 [Dasatinib] + CC(=O)Nc1cccc(-n2c(=O)n(C3CC3)c(=O)c3c(Nc4ccc(I)cc4F)n(C)c(=O)c(C)c32)c1 [Trametinib] (first compound max 2 µM, 7x7, partner max 1 µM) | 0.104
CCc1c2c(nc3ccc(O)cc13)-c1cc3c(c(=O)n1C2)COC(=O)[C@]3(O)CC [SN-38] + CN(C)CCCOc1ccc(-c2ccc3ncc4c(c3c2)n(C2CCOCC2)c(=O)n4C)cn1 [AZD0156] (first compound max 0.3 µM, 7x7, partner max 1 µM) | 0.0135
C[C@@H](c1ccc2nccn2c1)n1nnc2ncc(-c3cnn(C)c3)nc21 [Savolitinib] + CC1(C)CCC(CN2CCN(c3ccc(C(=O)NS(=O)(=O)c4ccc(NCC5CCOCC5)c([N+](=O)[O-])c4)c(Oc4cnc5[nH]ccc5c4)c3)CC2)=C(c2ccc(Cl)cc2)C1 [Venetoclax] (first compound max 1 µM, 7x7, partner max 1 µM) | -0.0394

// lookup Bliss excess for Cc1c2c(nn1C)CSCc1cc(n(C)n1)CSc1cc(c3ccccc3c1)OCCCc1c(C(=O)O)n(C)c3c-2c(Cl)ccc13 [AZD5991] + C=CCn1c(=O)c2cnc(Nc3ccc(N4CCN(C)CC4)cc3)nc2n1-c1cccc(C(C)(C)O)n1 [AZD1775] (first compound max 1 µM, partner max 1 µM)
-0.064

Look up Bliss excess: N#Cc1cnc(Nc2cc(NC[C@H]3CNCCO3)c(C(F)(F)F)cn2)cn1 [SRA737] + O=c1[nH]cc(F)c(=O)[nH]1 [5-Fluorouracil] (first compound max 10 µM, 7x7, partner max 20 µM)
0.0238

Need Bliss excess, item Cc1c2c(nn1C)CSCc1cc(n(C)n1)CSc1cc(c3ccccc3c1)OCCCc1c(C(=O)O)n(C)c3c-2c(Cl)ccc13 [AZD5991] + CC1(C)CCC(CN2CCN(c3ccc(C(=O)NS(=O)(=O)c4ccc(NCC5CCOCC5)c([N+](=O)[O-])c4)c(Oc4cnc5[nH]ccc5c4)c3)CC2)=C(c2ccc(Cl)cc2)C1 [Venetoclax] (first compound max 1 µM, 7x7, partner max 1 µM)
-0.0217
